Measured Kd by item
assay target: Protein AF-9 (Homo sapiens)
Sequence (P42568 whole entry): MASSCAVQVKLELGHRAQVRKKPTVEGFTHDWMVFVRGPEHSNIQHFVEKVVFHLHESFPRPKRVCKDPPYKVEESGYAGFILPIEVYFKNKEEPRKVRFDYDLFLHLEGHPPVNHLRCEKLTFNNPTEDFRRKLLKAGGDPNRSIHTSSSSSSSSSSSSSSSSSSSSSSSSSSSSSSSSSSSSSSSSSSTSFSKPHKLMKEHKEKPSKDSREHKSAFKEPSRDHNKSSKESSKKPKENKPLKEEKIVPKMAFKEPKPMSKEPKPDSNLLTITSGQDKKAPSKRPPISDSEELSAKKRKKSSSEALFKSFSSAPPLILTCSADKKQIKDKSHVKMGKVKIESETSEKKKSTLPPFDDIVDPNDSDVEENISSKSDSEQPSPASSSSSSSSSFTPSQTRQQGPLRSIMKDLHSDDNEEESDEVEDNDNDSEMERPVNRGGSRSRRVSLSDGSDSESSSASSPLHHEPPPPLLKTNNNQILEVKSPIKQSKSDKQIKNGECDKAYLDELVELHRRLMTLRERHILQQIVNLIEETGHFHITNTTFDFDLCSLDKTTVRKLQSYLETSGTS
Number in nM, nothing else.

- CC(=O)N[C@@H](Cc1ccc(O)cc1)C(=O)NCC(=O)N[C@@H](CCCNC(=N)N)C(=O)N[C@@H](CCCCN)C(=O)N[C@@H](CCCCN)C(=O)N[C@@H](CCCNC(=N)N)C(=O)N[C@@H](CCCNC(=N)N)C(=O)N[C@@H](CCC(N)=O)C(=O)N[C@@H](CCCNC(=N)N)C(=O)N[C@@H](CCCNC(=N)N)C(=O)N[C@@H](CCCNC(=N)N)C(=O)NCCCC[C@@H]1NC(=O)[C@H]([C@@H](C)O)NC(=O)[C@@H](NC(=O)OCc2ccccc2)CCCCNC(=N)NCCC[C@@H](C(=O)N[C@@H](CCCCNC(=O)c2cnco2)C(N)=O)NC1=O: 800

Proceed to the following item.
Kd of `C[C@@H]1NC(=O)[C@H]([C@H](C)O)NC(=O)[C@@H](NC(=O)OCc2ccccc2)CCCCNC(=N)NCCC[C@H](C(=O)N[C@@H](CCCCNC(=O)c2cnco2)C(N)=O)NC1=O` , assay on Protein AF-9 (Homo sapiens), is 370

----------
assay target: Protein AF-9 (Homo sapiens, UniProt P42568)
method notes: Inhibition of AF9 YEATS domain (1 to 138 residues) (unknown origin) assessed as inhibition of probe-1 induced AF9 YEATS domain labelling incubated for 10 mins followed by UV-irradiation for 20 mins by Photo-cross linking based In-gel fluorescence scanning analysis
assay metric: IC50 (nM)
Number in nM, nothing else.

* C[C@@H]1NC(=O)[C@H]([C@H](C)O)NC(=O)[C@@H](NC(=O)OCc2ccccc2)CCCCNC(=N)NCCC[C@H](C(=O)N[C@@H](CCCCNC(=O)c2cnco2)C(N)=O)NC1=O | 410

Proceed to the following item.
Form: molecule = `CC(=O)N[C@@H](Cc1ccc(O)cc1)C(=O)NCC(=O)N[C@@H](CCCNC(=N)N)C(=O)N[C@@H](CCCCN)C(=O)N[C@@H](CCCCN)C(=O)N[C@@H](CCCNC(=N)N)C(=O)N[C@@H](CCCNC(=N)N)C(=O)N[C@@H](CCC(N)=O)C(=O)N[C@@H](CCCNC(=N)N)C(=O)N[C@@H](CCCNC(=N)N)C(=O)N[C@@H](CCCNC(=N)N)C(=O)NCCCC[C@@H]1NC(=O)[C@H]([C@@H](C)O)NC(=O)[C@@H](NC(=O)OCc2ccccc2)CCCCNC(=N)NCCC[C@@H](C(=O)N[C@@H](CCCCNC(=O)c2cnco2)C(N)=O)NC1=O` ; IC50 = 1740
